System: up to 32 different microorganisms
testProtocol: in vitro antibacterial activity (MIC), agar dilution on Brain Heart Infusion (BHI) agar with Steers replicator
Format: cell-based
studyConditions: organism code II; unit assumed
property: MIC

molecule | MIC
C=C(C#CCO[C@@]1(C)C[C@@H](C)C(=O)[C@H](C)[C@H]2NC(=O)O[C@]2(C)[C@@H](CC)OC(=O)[C@H](C)C(=O)[C@H](C)[C@H]1O[C@@H]1O[C@H](C)C[C@H](N(C)C)[C@H]1O)c1ccccc1 | 0.1 µg/mL

Query block: For the molecule CCC1OC(=O)C(C)C(=O)C(C)C(OC2OC(C)CC(N(C)C)C2O)C(C)(OCC=Cc2ccc(-n3cccc3)cc2)CC(C)C(=O)C(C)C2NC(=O)OC12C (stereo not shown) , what MIC is on record?
Result block: 0.05 µg/mL

Query block: Please give the result for CC[C@H]1OC(=O)[C@H](C)C(=O)[C@H](C)[C@@H](O[C@@H]2O[C@H](C)C[C@H](N(C)C)[C@H]2O)[C@@](C)(OCC=NOc2ccccc2)C[C@@H](C)C(=O)[C@H](C)[C@H]2NC(=O)O[C@@]21C too.
Result block: 0.1 µg/mL

Query block: Also need CCC1OC(=O)C(C)C(=O)C(C)C(OC2OC(C)CC(N(C)C)C2O)C(C)(OCC=Cc2ccc3ncc(-c4cccs4)cc3c2)CC(C)C(=O)C(C)C2NC(=O)OC12C (stereo not shown) , thanks.
Result block: 0.1 µg/mL

Query block: Also need CC[C@H]1OC(=O)[C@H](C)C(=O)[C@H](C)[C@@H](O[C@@H]2O[C@H](C)C[C@H](N(C)C)[C@H]2O)[C@@](C)(OCC#Cc2ccc3ncccc3c2)C[C@@H](C)C(=O)[C@H](C)[C@H]2NC(=O)O[C@@]21C , thanks.
Result block: 0.02 µg/mL

Query block: Let us now turn to CCC1OC(=O)C(C)C(=O)C(C)C(OC2OC(C)CC(N(C)C)C2O)C(C)(OCC=Cc2ccc3[nH]c4ccccc4c3c2)CC(C)C(=O)C(C)C2NC(=O)OC12C (stereo not shown)
Result block: 0.05 µg/mL

Query block: Next molecule: CCC1OC(=O)C(C)C(=O)C(C)C(OC2OC(C)CC(N(C)C)C2O)C(C)(OCC=Cc2ccc3ncc(-c4cccnc4)cc3c2)CC(C)C(=O)C(C)C2NC(=O)OC12C (stereo not shown)
Result block: 0.05 µg/mL

Query block: Input CC[C@H]1OC(=O)[C@H](C)C(=O)[C@H](C)[C@@H](O[C@@H]2O[C@H](C)C[C@H](N(C)C)[C@H]2O)[C@@](C)(OCC(=O)c2ccccc2)C[C@@H](C)C(=O)[C@H](C)[C@H]2NC(=O)O[C@@]21C
Result block: 1.56 µg/mL

Query block: Queued: CCC1OC(=O)C(C)C(=O)C(C)C(OC2OC(C)CC(N(C)C)C2O)C(C)(OCC=Cc2ccc(C)c3ccccc23)CC(C)C(=O)C(C)C2NC(=O)OC12C (stereo not shown)
Result block: 0.2 µg/mL

Query block: Also CCC1OC(=O)C(C)C(=O)C(C)C(OC2OC(C)CC(N(C)C)C2O)C(C)(OCC(O)c2ccccc2)CC(C)C(=O)C(C)C2NC(=O)OC12C (single isomer, unassigned) [Example 261A] , if possible.
Result block: 1.56 µg/mL
